# assayed target: T1, synthetic peptide CCR6-1 (1st to 17th amino acids of human CCR6) (human, also: 11 PEG units at the C-terminal side)
# T1 construct: also called CCR6-1 peptide
# T1 peptide: MSGESMNFSDVFDSSEDC
# assay: binding ELISA on coated peptide
No end group written: not given here.
measure: binding result

1. anti-human CCR6 chimeric antibody KM4705 chimera (antibody, human IgG1, V domains shown) VH: EVQLVETGGGLVQPKGSLKLSCAASGFSFKTNAMNWVRQAPGKGLEWVARIRSKINNYATYYADSVKDRFTISRDDSQSMLYLQMNNLKTEDTAMYYCVSDHYGYGAVDYWGQGTSVTVSS VL: DIQMNQSPSSLSASLGDTITITCRASQNINIWLSWYQQKPGSIPKLLIYKASNLHTGVSSRFSGSGYGTDFTLTISSLQPEDIATYYCLQGRSYPLTFGGGTNLEIK :: binds
2. anti-human CCR6 chimeric antibody KM4703 chimera (antibody, human IgG1, V domains shown) VH: QVQMKETGPGLVQPTQTLSLTCTVSGFSLTSSRVHWVRQPPGKGLEWMGVIYYDGKTDYNATLKSRLSISRDTSKSQVFLKINSLQTDDTAMYYCAGGVIMDAWGQGASVTVSP VL: DVLMTQIPVSLPVSLGGQVAISCRSSQSLVHTDGNTYLHWYLQKPGQSPQLLIYRVSNRFSGVPDRFSGSGSGTDFTLKISRVEPEDLGVYYCSQRTYFPLTFGSGTKLEIK :: no binding
3. anti-human CCR6 chimeric antibody KM4592 chimera (antibody, human IgG1, V domains shown) VH: DVQLVESGGGLVQPGGSRKLSCAASGFTFSSFGMHWVRQAPEKGLEWVAYISTGSGSIYYADTVKGRFTISRDNPKNTLFLQMTSLRSEDTAIYYCLKGGDGYYVAAWFAYWGQGTLVTVSA VL: DIVLTQAAPSVSVTPGESVSISCRSSKSLLHTNDNTYLYWFLQRPGQSPQLLIYRMSNLASGVPDRFSGSGSGTAFTLRISRVEAEDVGVYYCMQHLEYPLTFGAGTKLELK :: no binding
4. anti-human CCR6 chimeric antibody KM4704 chimera (antibody, human IgG1, V domains shown) VH: EVQLQESGPGLVKPSQSLSLTCSVTGYSITSNYWGWIRKFPGNKMEWMGYTSSSGSTSYNPYLKSRISITRDTSKNQFFLKLNSVTTEDTATYYCTGGYVMDAWGQGASVTVSS VL: DVLMTQTPVSLPVSLGGQVSISCRSSQSLVHSDGNTYLHWYLQKPGQSPQLLIYRVSNRFSGVPDRFSGSGSGTDFTLKISRVEPEDLGVYYCLQRTYVPWTFGGGTKLDLK :: no binding
